biological target: Estrogen receptor (Homo sapiens); test: qHTS assay to identify small molecule antagonists of the estrogen receptor alpha (ER-alpha) signaling pathway (AID 743069); details: HEK293 ER-alpha-UAS-bla, beta-lactamase ratio, antagonist mode; series mostly up to 69.4 µM
The source made the active and inactive calls. Calls come from the whole dose curve; as a rule, active = well fitted curve in the direction sought with a large enough effect in the signal ratio in the repeat runs (not every such curve was filed as active); inconclusive = weak or mixed curves, or effect the other way; inactive = no such curve, though single readings can be large or run the other way; the % refers to the signal ratio.
Possible outcomes: 1.0 for active, 0.0 for inactive

>>> label("O=S(=O)(c1cccc2cnccc12)N1CCCNCC1")
0.0
>>> label("C=C(C)C(=O)OCCCCCCCCCCCCCCCCCC")
0.0
>>> label("CC/C=C\\C#N")
0.0
>>> label("Cc1ncc(CSSCc2cnc(C)c(O)c2CO)c(CO)c1O")
0.0
>>> label("CCCCOCC(C)OCC(C)O (configuration not stated)")
0.0
>>> label("C[C@H](O)C(=O)Nc1c(I)c(C(=O)NC(CO)CO)c(I)c(C(=O)NC(CO)CO)c1I")
0.0
>>> label("Nc1cc(C(Cl)=C(Cl)Cl)c(S(N)(=O)=O)cc1S(N)(=O)=O")
0.0
>>> label("O=[N+]([O-])c1ccc(Oc2ccc([N+](=O)[O-])cc2)cc1")
0.0
>>> label("O=C(O)c1ccccc1S")
0.0
>>> label("O=C(O)c1cccc(C(=O)O)n1")
0.0
>>> label("CC(C)CCCCCCN")
0.0
>>> label("O=C(O)Cc1cc(I)c(Oc2cc(I)c(O)c(I)c2)c(I)c1")
1.0
>>> label("CCC(C(=O)NC(N)=O)c1ccccc1 (configuration not stated)")
0.0
>>> label("O=C1OC(=O)c2cc([N+](=O)[O-])ccc21")
0.0
>>> label("CCOC(=O)Nc1ccc2c(c1)N(C(=O)CCN1CCOCC1)c1ccccc1S2")
0.0
>>> label("C=C(C)[C@@H]1CCC2=CC(=O)C[C@@H](C)[C@]2(C)C1")
0.0
>>> label("COC[C@H](c1ccc(C(F)(F)F)cc1)N1CCN(C2(C)CCN(C(=O)c3c(C)ncnc3C)CC2)C[C@H]1C")
0.0
>>> label("CCCCCCOC(=O)c1ccccc1O")
0.0
>>> label("CC(C)c1cccc(C(C)C)c1N")
0.0
>>> label("OCC(CO)(CO)COCC(CO)(CO)CO")
0.0
>>> label("Cc1cc(C)cc(OCC2CNC(=O)O2)c1 (configuration not stated)")
0.0
>>> label("CC1CCN(CCCC(=O)c2ccc(F)cc2)CC1")
0.0
>>> label("NC(=O)c1ncn([C@@H]2O[C@H](CO)[C@@H](O)[C@H]2O)c1N")
0.0
>>> label("CCCCCCOC(=O)CC(CC(=O)OCCCCCC)(OC(=O)CCC)C(=O)OCCCCCC")
0.0
>>> label("CCCCN(CCO)CCO")
0.0
>>> label("CCC(=O)/C=C/c1ccc(OC)cc1")
0.0
>>> label("Cc1ccc(Nc2ccc(O)c3c2C(=O)c2ccccc2C3=O)cc1")
0.0

---

experiment: qHTS assay to test for compound auto fluorescence at 590 nm (red) in HepG2 cell free culture (AID 720684); settings: cell-free medium autofluorescence, red 540/590 nm; series mostly up to 91.3 µM; note: % is set by controls: 0 for no effect and ±100 for the full control effect
Calls of active or inactive are those of the source. Calls come from the whole dose curve; as a rule, active = well fitted curve in the direction sought with a large enough effect in the repeat runs; inconclusive = weak or mixed curves; inactive = flat fitted curve, though single readings scatter.
measure: fluorescence, % of Rose Bengal

>>> result("COc1cc(CCC(C)=O)ccc1O")
"inactive"
>>> result("CC/C=C\\CCCCO")
"inactive"
>>> result("CCCC(C)CO (stereo not given)")
"inactive"
>>> result("NC(=S)Nc1cccc2ccccc12")
"-0.172% [at 3.72 µM] (inactive)"
>>> result("OCCN1C[C@H](O)[C@@H](O)[C@H](O)[C@H]1CO")
"inactive"

---

We begin with a simple list: items and their reported max activation.
target: Nuclear receptor subfamily 1 group I member 2 (Rattus norvegicus) (UniProt Q9R1A7); assay: Rat pregnane X receptor (rPXR) activation by small molecules, qHTS assay (AID 1346983); settings: rPXR luciferase reporter cells, One-Glo luminescence, 24 h; stronger effect = higher value; note: % is set by controls: 0 for no effect and ±100 for the full control effect; nearly all actives have a fitted effect of over 20% in size
Sequence (Q9R1A7 whole entry, looked up): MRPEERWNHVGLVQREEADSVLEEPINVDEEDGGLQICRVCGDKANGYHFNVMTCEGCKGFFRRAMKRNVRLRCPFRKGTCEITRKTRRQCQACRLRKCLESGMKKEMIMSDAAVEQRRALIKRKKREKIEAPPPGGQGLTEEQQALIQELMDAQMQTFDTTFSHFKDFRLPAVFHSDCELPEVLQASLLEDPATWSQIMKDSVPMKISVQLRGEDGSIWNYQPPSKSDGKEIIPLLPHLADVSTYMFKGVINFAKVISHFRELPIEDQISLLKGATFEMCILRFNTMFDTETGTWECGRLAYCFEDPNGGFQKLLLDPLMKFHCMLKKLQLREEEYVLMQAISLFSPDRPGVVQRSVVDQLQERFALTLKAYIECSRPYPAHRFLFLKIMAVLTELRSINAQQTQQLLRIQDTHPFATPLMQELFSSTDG
Results filed as inconclusive are left out. The source made the active and inactive calls. Calls follow the shape of the dose curve; as a rule, active = well fitted activation curve with a large enough effect in the repeat runs; inconclusive = weak or mixed curves; inactive = no such curve, though single readings can be large or run the other way.
measure: max activation

>>> result("O=C(O)/C=C/c1ccc(Cn2ccnc2)cc1")
"-1.1% (inactive)"
>>> result("C[N+](C)(C)CC[N+]1(C)Cc2c(Cl)c(Cl)c(Cl)c(Cl)c2C1")
"-3.39% (inactive)"
>>> result("OCc1ccccn1")
"-1.13% (inactive)"
>>> result("CCCCCOC(=O)Nc1nc(=O)n([C@@H]2O[C@H](C)[C@@H](O)[C@H]2O)cc1F")
"-1.91% (inactive)"
>>> result("NS(=O)(=O)c1cc(C2(O)NC(=O)c3ccccc32)ccc1Cl (stereo not drawn)")
"-0.257% (inactive)"
>>> result("COC(=O)[C@H]1[C@H]2C[C@@H]3c4[nH]c5cc(OC)ccc5c4CCN3C[C@H]2C[C@@H](OC(=O)COc2ccc(OC)cc2)[C@@H]1OC")
"-1.88% (inactive)"
>>> result("CCN1CCCC(OC(=O)C(c2ccccc2)c2ccccc2)C1 (stereo not drawn)")
"0.492% (inactive)"
>>> result("NC(=O)c1ncn([C@@H]2O[C@H](CO)[C@@H](O)[C@H]2O)c1O")
"-0.429% (inactive)"
>>> result("O=C1C(CCS(=O)c2ccccc2)C(=O)N(c2ccccc2)N1c1ccccc1 (stereo not drawn)")
"-2.19% (inactive)"
>>> result("Nc1cc(C(Cl)=C(Cl)Cl)c(S(N)(=O)=O)cc1S(N)(=O)=O")
"-3.29% (inactive)"
>>> result("O=C(O)c1ccccc1-c1ccc(C(F)(F)F)cc1")
"-1.61% (inactive)"
>>> result("CCn1cc(C(=O)O)c(=O)c2cc(F)c(N3CCN(C)CC3)cc21")
"-0.517% (inactive)"
>>> result("Cc1onc(-c2ccccc2)c1-c1ccc(S(N)(=O)=O)cc1")
"-3.92% (inactive)"
>>> result("Nc1[nH]c(=O)ncc1F")
"-0.668% (inactive)"
>>> result("CN(C)CCOC(c1ccc(Cl)cc1)c1ccccn1 (stereo not drawn)")
"-0.352% (inactive)"
>>> result("CCOC(=O)[C@H](CCc1ccccc1)N[C@@H](C)C(=O)N1CCC[C@H]1C(=O)O")
"-3.1% (inactive)"
>>> result("NCCNC(=O)c1ccc(Cl)cn1")
"-1.85% (inactive)"
>>> result("NCC[C@H](O)C(=O)N[C@@H]1C[C@H](N)[C@@H](O[C@H]2O[C@H](CN)[C@@H](O)[C@H](O)[C@H]2O)[C@H](O)[C@H]1O[C@H]1O[C@H](CO)[C@@H](O)[C@H](N)[C@H]1O")
"-10.2% (inactive)"
>>> result("Cc1cc(C)c(NC(=O)CN(CC(=O)O)CC(=O)O)c(C)c1Br")
"-1.5% (inactive)"
>>> result("C[C@H]1O[C@@H](n2cc(F)c(=O)[nH]c2=O)[C@H](O)[C@@H]1O")
"-1.26% (inactive)"
>>> result("NC(=O)c1ncn([C@@H]2O[C@H](CO)[C@@H](O)[C@H]2O)c1N")
"0.984% (inactive)"
>>> result("Nc1nc(F)nc2c1ncn2[C@@H]1O[C@H](CO)[C@@H](O)[C@@H]1O")
"-2.35% (inactive)"
>>> result("Cc1ncc(CSSCc2cnc(C)c(O)c2CO)c(CO)c1O")
"-2.5% (inactive)"
>>> result("OCCN1C[C@H](O)[C@@H](O)[C@H](O)[C@H]1CO")
"-2.71% (inactive)"
>>> result("CCN(CC)C(=O)c1ccc(O)c(OC)c1")
"-5.72% (inactive)"
>>> result("CC(C)CCCC(C)CCCC(C)CCCCC(C)CCCC(C)CCCC(C)C (stereo not drawn)")
"-0.619% (inactive)"
>>> result("c1cc(CN2CCCCC2)cc(OCCCNc2nc3ccccc3s2)c1")
"2.06% (inactive)"
>>> result("NC(N)=NS(=O)(=O)c1ccc(N)cc1")
"-6.55% (inactive)"

---

assay: qHTS assay to identify small molecule agonists of the retinoic acid receptor (RAR) signaling pathway (AID 1159553); settings: C3RL4 RARE luciferase reporter, agonist, 6 h; series mostly up to 73.3 µM; for activation: % is set by controls: 0 for no effect and ±100 for the full control effect
Results filed as inconclusive are left out. The source made the active and inactive calls. Calls come from the whole dose curve; as a rule, active = well fitted activation curve with a large enough effect in the repeat runs; inconclusive = weak or mixed curves, or effect the other way; inactive = no such curve, though single readings can be large or run the other way.
Possible outcomes: Yes for active, No for inactive

>>> label("Cc1c(C)n(CCN(C)C)c2ccc(C(=O)OCCN(C)C)cc12")
"No"
>>> label("COc1ccc(COC=O)cc1")
"No"
>>> label("C=C(C)C1CC=C(C)C(O)C1 (configuration not stated)")
"No"
>>> label("O=C1CC2(CCCC2)CC(=O)N1")
"No"
>>> label("CC(C)c1ccc2oc3nc(N)c(C(=O)O)cc3c(=O)c2c1")
"Yes"
>>> label("CCC(=O)/C=C/c1ccc(OC)cc1")
"Yes"
>>> label("CCCCCC[C@@H](CCC)C(=O)O")
"No"
